src = patent US12600709B2

- measured-target: human somatostatin receptor subtype 5 (Homo sapiens)
- Construct: expressed in transfected cells
- assay-details: cAMP assay for SST5R (inhibition of cAMP in CHO-K1 cells)
- Assay type: cell-based
- test-conditions: Table A; inhibition of cAMP via human SST5 receptor; read-out: SST5 potency
measurement-name: EC50

>>> data_value("C[C@H](NC(=O)c1ncc(Cl)c(-c2cc(F)cc(F)c2)c1N1CC[C@](C)(N)C1)C1CC1")
"< 0.01 µM"
>>> data_value("CC[C@H](NC(=O)c1cncc(-c2nc3c(C)cccc3[nH]2)c1N1CC[C@](C)(N)C1)C(F)(F)F")
"< 0.01 µM"
>>> data_value("N[C@H]1CCN(c2c(C(=O)NC3CCC(F)(F)CC3)cnc(C(F)(F)F)c2-c2cc(F)cc(F)c2)C1")
"< 0.01 µM"

So for "CCNC(=O)c1cncc(-c2nc3c(C)cccc3[nH]2)c1N1CC[C@](C)(N)C1" , the logged EC50 turned out to be 0.01 to 0.1 µM

====

- measured-target: human somatostatin receptor subtype 5 (Homo sapiens, UniProt P35346)
- Construct: expressed in transfected cells
- Sequence (P35346 whole entry): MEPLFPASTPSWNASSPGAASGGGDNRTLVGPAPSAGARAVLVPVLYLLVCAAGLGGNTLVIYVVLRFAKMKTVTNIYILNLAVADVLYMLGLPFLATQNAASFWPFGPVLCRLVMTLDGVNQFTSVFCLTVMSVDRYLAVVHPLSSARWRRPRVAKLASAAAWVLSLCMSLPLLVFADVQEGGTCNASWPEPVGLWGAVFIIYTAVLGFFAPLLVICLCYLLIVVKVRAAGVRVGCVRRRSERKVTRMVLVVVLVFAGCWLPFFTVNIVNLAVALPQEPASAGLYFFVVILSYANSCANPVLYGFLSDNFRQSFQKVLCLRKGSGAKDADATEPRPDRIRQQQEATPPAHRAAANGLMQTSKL
- assay-details: cAMP assay for SST5R (inhibition of cAMP in CHO-K1 cells)
- Assay type: cell-based
- test-conditions: Table A; inhibition of cAMP via human SST5 receptor; read-out: SST5 potency
pEC50: −log10 of the molar value.
measurement-name: pEC50

>>> data_value("CC1(NC(=O)c2cncc(-c3cccc(C#N)c3)c2N2CC[C@H](N)C2)CCC1 [1-8]")
"6.00 to 7.00"
>>> data_value("Cc1cccc2[nH]c(-c3cncc(C(=O)N4CCC5(CC5)C4)c3N3CC[C@](C)(N)C3)nc12 [2-39]")
"7.00 to 8.00"
>>> data_value("COc1ncc(C(=O)NC23CC(C2)C3)c(N2CC[C@](C)(N)C2)c1-c1cc(F)cc(F)c1 [1-130]")
"> 8.00"

Attention now shifts to the item below.
Measured pEC50, C[C@H](NC(=O)c1ccnc(-c2cc(F)cc(F)c2)c1N1CC[C@](C)(N)C1)C1CC1 [3-1] : 7.00 to 8.00

====

- measured-target: UniProt P30874
- Sequence (P30874 whole entry): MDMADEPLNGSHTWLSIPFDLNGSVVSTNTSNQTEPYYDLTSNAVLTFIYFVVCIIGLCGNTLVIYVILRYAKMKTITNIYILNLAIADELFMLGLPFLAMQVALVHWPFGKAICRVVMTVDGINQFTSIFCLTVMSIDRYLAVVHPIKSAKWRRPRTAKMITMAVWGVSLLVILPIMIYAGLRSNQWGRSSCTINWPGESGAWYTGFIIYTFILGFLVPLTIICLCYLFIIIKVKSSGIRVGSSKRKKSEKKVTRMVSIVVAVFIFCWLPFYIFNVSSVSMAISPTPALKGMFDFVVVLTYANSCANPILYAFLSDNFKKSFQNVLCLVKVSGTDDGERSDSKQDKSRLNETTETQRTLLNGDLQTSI
- assay-details: cAMP assay for SST2R (inhibition of cAMP in CHO-K1 cells)
- test-conditions: Table B; inhibition of cAMP via human SST2 receptor; read-out: SST2 potency
pEC50: −log10 of the molar value.
measurement-name: pEC50

>>> data_value("Cc1ncc(C(=O)N[C@@H](C)C2CC2)c(N2CC[C@](C)(N)C2)c1-c1ccc(F)c(Cl)c1")
"6.00 to 7.00"
>>> data_value("COc1ncc(C(=O)NC2CC(F)(F)C2)c(N2CC[C@H](N)C2)c1-c1cc(F)cc(Cl)c1")
"6.00 to 7.00"
>>> data_value("N#Cc1ncc(C(=O)NC23CC(C2)C3)c(N2CC[C@H](N)C2)c1-c1ccc(F)c(F)c1")
"< 6.00"
>>> data_value("Cc1ncc(C(=O)N[C@@H](C)C2CC2)c(N2CC[C@](C)(N)C2)c1-c1cc(F)cc(C#N)c1")
"6.00 to 7.00"
>>> data_value("C[C@H](NC(=O)c1cnc(C(F)(F)F)c(-c2cc(F)cc(Cl)c2)c1N1CC[C@H](N)C1)C1CC1")
"7.00 to 8.00"
>>> data_value("C[C@]1(N)CCN(c2c(C(=O)NC34CC(F)(C3)C4)cnc(C#N)c2-c2cc(F)cc(F)c2)C1")
"6.00 to 7.00"

Form field, pEC50 with UniProt P30874, item "COc1cc(C#N)cc(-c2c(C(F)(F)F)ncc(C(=O)N[C@@H](C)C3CC3)c2N2CC[C@](C)(N)C2)c1" : 6.00 to 7.00

I looked up "C[C@@H](NC(=O)c1cncc(-c2cc(F)cc(F)c2)c1N1CC[C@](C)(N)C1)C1CC1" and its pEC50 for UniProt P30874 was 6.00 to 7.00
